molecular target: human GluN1/GluN2B (Homo sapiens (Human), UniProt Q05586+Q13224); test: Two electrode voltage-clamp recordings from Xenopus laevis oocytes, GluN2B potency and pH dependence; assay type: cell-based; conditions: pH 6.9; read-out: IC50 (μM) pH 6.9
Sequence (Q13224 27-1484, other chains not shown): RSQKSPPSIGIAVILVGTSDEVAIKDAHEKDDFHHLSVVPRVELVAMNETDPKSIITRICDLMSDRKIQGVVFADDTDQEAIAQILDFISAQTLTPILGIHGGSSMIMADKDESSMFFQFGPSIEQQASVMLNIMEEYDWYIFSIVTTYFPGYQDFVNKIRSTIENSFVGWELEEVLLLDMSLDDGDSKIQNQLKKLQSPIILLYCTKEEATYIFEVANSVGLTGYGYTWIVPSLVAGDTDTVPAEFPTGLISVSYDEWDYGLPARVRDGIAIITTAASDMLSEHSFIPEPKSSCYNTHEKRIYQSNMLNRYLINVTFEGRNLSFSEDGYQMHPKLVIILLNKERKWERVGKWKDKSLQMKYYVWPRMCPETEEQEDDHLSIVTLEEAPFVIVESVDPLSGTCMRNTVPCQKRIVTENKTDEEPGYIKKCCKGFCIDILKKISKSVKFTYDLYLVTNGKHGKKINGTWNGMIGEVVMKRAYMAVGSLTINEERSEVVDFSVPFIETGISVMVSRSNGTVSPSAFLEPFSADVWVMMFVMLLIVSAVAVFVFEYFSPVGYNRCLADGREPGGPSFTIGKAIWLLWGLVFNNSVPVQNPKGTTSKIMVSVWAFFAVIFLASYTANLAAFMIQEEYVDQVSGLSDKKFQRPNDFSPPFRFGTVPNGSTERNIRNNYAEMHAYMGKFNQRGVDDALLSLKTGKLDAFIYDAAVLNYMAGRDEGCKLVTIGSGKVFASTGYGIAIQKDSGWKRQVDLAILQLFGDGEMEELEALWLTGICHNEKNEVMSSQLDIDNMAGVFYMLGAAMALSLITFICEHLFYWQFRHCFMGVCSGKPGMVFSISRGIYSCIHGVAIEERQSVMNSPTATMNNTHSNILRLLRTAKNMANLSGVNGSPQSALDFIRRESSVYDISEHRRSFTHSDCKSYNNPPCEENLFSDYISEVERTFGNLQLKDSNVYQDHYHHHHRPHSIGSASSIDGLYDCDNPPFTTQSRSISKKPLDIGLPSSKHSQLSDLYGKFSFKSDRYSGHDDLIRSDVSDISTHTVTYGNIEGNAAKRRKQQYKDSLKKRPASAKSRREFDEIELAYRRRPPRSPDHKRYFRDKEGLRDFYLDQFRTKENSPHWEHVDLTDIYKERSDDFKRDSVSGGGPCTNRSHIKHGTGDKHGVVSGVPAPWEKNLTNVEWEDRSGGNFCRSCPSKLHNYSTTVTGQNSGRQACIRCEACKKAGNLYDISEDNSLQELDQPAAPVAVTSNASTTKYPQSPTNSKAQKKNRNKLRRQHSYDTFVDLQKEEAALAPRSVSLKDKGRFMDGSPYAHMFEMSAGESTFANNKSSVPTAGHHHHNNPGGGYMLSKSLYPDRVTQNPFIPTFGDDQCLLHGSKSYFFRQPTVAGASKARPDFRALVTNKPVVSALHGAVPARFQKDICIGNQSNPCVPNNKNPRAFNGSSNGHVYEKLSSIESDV
Response field label: string, one of Y (IC50 strictly below 0.07 µM) or N.

Worked examples, 10 compounds total:
Compound: CCc1ccc(N2CCN(C[C@H](O)COc3ccc(NC(N)=O)cc3)CC2)cc1 [Compound 10189]
Assigned Category: N

Compound: CCCCc1ccc(N2CCN(C[C@@H](O)COc3ccc(O)cc3)CC2)cc1 [Compound 10249]
Assigned Category: N

Compound: CCCCc1ccc(N2CCN(C[C@H](O)COc3ccc(O)cc3)CC2)cc1 [Compound 10235]
Assigned Category: N

Compound: Cc1ccc(N2CCN(C[C@H](O)COc3ccc(O)cc3)CC2)cc1 [Compound 10040]
Assigned Category: N

Compound: NC(=O)Nc1ccc(OC[C@H](O)CN2CCN(c3ccc(F)cc3)CC2)cc1 [Compound 10225]
Assigned Category: N

Compound: O=C1Cc2cc(OC[C@@H](O)CN3CCN(c4ccc(Cl)cc4)CC3)ccc2N1 [Compound 10146]
Assigned Category: Y

Compound: CS(=O)(=O)Nc1ccc(OC[C@H](O)CN2CCN(c3ccc(F)c(F)c3)CC2)cc1 [Compound 10233]
Assigned Category: Y

Compound: CCc1ccc(N2CCN(C[C@H](O)COc3ccc(O)cc3)CC2)cc1 [Compound 10171]
Assigned Category: Y

Compound: O=C1CCc2cc(OC[C@H](O)CN3CCN(c4ccc(C(F)(F)F)cc4)CC3)ccc2N1 [NP10679]
Assigned Category: Y

Compound: NC(=O)Nc1ccc(OC[C@@H](O)CN2CCN(c3ccc(Cl)cc3)CC2)cc1 [Compound 10075]
Assigned Category: Y

# input Hi there! Is IC50 for NC(=O)Nc1ccc(OC[C@@H](O)CN2CCN(c3ccc(Cl)c(Cl)c3)CC2)cc1 [Compound 10131] below 0.07 µM, do you know?
# output N

# input Hi there! Is IC50 for CCCc1ccc(N2CCN(C[C@H](O)COc3ccc(NC(N)=O)cc3)CC2)cc1 [Compound 10215] below 0.07 µM, do you know?
# output N

# input Hi there! Is IC50 for NC(=O)Nc1ccc(OC[C@H](O)CN2CCN(c3ccc(C(F)(F)F)cc3)CC2)cc1 [Compound 10272] below 0.07 µM, do you know?
# output Y

# input Hi there! Is IC50 for NC(=O)Nc1ccc(OC[C@H](O)CN2CCN(c3ccc(Cl)cc3)CC2)cc1 [Compound 10165] below 0.07 µM, do you know?
# output Y

# input Hi there! Is IC50 for CC(C)c1ccc(N2CCN(C[C@@H](O)COc3ccc(O)cc3)CC2)cc1 [Compound 10247] below 0.07 µM, do you know?
# output N

# input Hi there! Is IC50 for CCCc1ccc(N2CCN(C[C@@H](O)COc3ccc(NC(N)=O)cc3)CC2)cc1 [Compound 10224] below 0.07 µM, do you know?
# output Y

# input Hi there! Is IC50 for O=C1CCc2cc(OC[C@@H](O)CN3CCN(c4ccc(C(F)(F)F)cc4)CC3)ccc2N1 [NP10309] below 0.07 µM, do you know?
# output N

# input Hi there! Is IC50 for Oc1ccc(OC[C@@H](O)CN2CCN(c3ccccc3)CC2)cc1 [Compound 10039] below 0.07 µM, do you know?
# output N

# input Hi there! Is IC50 for CS(=O)(=O)Nc1ccc(OC[C@@H](O)CN2CCN(c3ccc(F)c(F)c3)CC2)cc1 [Compound 93-108] below 0.07 µM, do you know?
# output Y

# input Hi there! Is IC50 for NC(=O)Nc1ccc(OC[C@@H](O)CN2CCN(c3ccc(F)cc3)CC2)cc1 [Compound 10214] below 0.07 µM, do you know?
# output N

# input Hi there! Is IC50 for Oc1ccc(OC[C@H](O)CN2CCN(c3ccc(F)c(F)c3)CC2)cc1 [Compound 10052] below 0.07 µM, do you know?
# output Y

# input Hi there! Is IC50 for CCc1ccc(N2CCN(C[C@@H](O)COc3ccc(O)cc3)CC2)cc1 [Compound 10245] below 0.07 µM, do you know?
# output Y

====

assay: SAD study NP10679-101, plasma pharmacokinetics; assay type: in vivo, human; settings: human, plasma; Cohort 4, 100 mg single IV
Result Type: AUC(0-inf) (ng·h/mL)
Reply numerically in ng·h/mL, unit not repeated.

Reported AUC(0-inf) for O=C1CCc2cc(OC[C@H](O)CN3CCN(c4ccc(C(F)(F)F)cc4)CC3)ccc2N1 [NP10679] was 9860

====

assay: in vivo; conditions: BALB/c, mouse, plasma, po, 10 mg/kg
Result Type: AUC(0-inf) (ng·h/mL)
Reply numerically in ng·h/mL, unit not repeated.

Reported AUC(0-inf) for O=C1CCc2cc(OC[C@H](O)CN3CCN(c4ccc(C(F)(F)F)cc4)CC3)ccc2N1 was 49500

====

assay: SAD study NP10679-101, plasma pharmacokinetics; assay type: in vivo, human; settings: human, plasma, iv, 5 mg, Cohort 1, 5 mg single IV; read-out: Cmax
Result Type: Cmax
Give the value; after it, write the unit.

Reported Cmax for O=C1CCc2cc(OC[C@H](O)CN3CCN(c4ccc(C(F)(F)F)cc4)CC3)ccc2N1 was 30 ng/mL

====

assay: SAD study NP10679-101, plasma pharmacokinetics; assay type: in vivo, human; conditions: human, plasma, iv, 100 mg, Cohort 4, 100 mg single IV
Result Type: clearance (mL/min)
Reply numerically in mL/min, unit not repeated.

Reported clearance for O=C1CCc2cc(OC[C@H](O)CN3CCN(c4ccc(C(F)(F)F)cc4)CC3)ccc2N1 was 183

====

assay: Pharmacokinetics in the brain compartment compared to plasma in mice; assay type: in vivo; conditions: BALB/c, mouse, plasma; 3 mg/kg IV, Study 1
Result Type: Tmax (h)
Reply numerically in h, unit not repeated.

Reported Tmax for O=C1CCc2cc(OC[C@H](O)CN3CCN(c4ccc(C(F)(F)F)cc4)CC3)ccc2N1 was 1

====

assay: SAD study NP10679-101, plasma pharmacokinetics; format: in vivo, human; conditions: human, plasma; Cohort 2, 15 mg single IV
Result Type: MRT (h)
Reply numerically in h, unit not repeated.

Reported MRT for O=C1CCc2cc(OC[C@H](O)CN3CCN(c4ccc(C(F)(F)F)cc4)CC3)ccc2N1 was 26.1

====

test: SAD study NP10679-101, plasma pharmacokinetics; assay type: in vivo, human; settings: human, plasma, iv, 200 mg, Cohort 6, 200 mg single IV
Result Type: clearance (mL/min)
Reply numerically in mL/min, unit not repeated.

Reported clearance for O=C1CCc2cc(OC[C@H](O)CN3CCN(c4ccc(C(F)(F)F)cc4)CC3)ccc2N1 [NP10679] was 173

====

target: hERG potassium channel (Homo sapiens (Human), UniProt Q12809); assay: hERG potassium channel current, automatic patch clamp in HEK cells; type: cell-based; conditions: pH 7.4, patch clamp; read-out: Functional IC50 (μM) hERG
Sequence (Q12809 whole entry): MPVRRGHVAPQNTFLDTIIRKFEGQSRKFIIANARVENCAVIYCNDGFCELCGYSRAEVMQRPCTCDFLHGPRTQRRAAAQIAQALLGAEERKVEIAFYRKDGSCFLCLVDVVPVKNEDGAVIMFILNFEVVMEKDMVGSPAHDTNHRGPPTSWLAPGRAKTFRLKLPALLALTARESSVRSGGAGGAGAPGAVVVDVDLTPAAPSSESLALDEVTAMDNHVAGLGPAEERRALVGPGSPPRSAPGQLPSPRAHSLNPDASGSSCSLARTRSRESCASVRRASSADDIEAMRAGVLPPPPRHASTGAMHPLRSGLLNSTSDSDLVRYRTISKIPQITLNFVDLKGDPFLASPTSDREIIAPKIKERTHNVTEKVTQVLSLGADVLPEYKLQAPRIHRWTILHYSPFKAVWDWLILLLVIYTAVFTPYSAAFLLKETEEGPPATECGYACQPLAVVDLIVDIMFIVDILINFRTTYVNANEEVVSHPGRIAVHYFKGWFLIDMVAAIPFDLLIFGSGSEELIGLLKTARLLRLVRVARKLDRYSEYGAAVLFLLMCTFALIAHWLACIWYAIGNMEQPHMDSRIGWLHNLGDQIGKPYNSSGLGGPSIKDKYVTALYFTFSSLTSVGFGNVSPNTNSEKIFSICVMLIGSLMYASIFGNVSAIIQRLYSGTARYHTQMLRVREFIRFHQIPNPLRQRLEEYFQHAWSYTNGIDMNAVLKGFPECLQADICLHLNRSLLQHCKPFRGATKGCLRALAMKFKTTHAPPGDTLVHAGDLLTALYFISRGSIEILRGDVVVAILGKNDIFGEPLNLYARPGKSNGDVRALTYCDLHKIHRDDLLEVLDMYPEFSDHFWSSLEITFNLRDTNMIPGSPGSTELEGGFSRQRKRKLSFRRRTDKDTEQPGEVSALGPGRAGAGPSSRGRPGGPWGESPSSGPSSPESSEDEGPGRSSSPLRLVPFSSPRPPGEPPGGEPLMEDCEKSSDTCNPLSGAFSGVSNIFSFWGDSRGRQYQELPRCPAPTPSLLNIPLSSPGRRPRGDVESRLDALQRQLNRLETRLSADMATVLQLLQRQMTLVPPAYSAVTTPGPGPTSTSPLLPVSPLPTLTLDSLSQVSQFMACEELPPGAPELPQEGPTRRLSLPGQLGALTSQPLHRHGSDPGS
Result Type: IC50 (µM)
Reply numerically in µM, unit not repeated.

Reported IC50 for O=C1CCc2cc(OC[C@H](O)CN3CCN(c4ccc(C(F)(F)F)cc4)CC3)ccc2N1 was 0.617

====

A collection of compounds and their measured IC50
Target: human GluN1/GluN2B (Homo sapiens (Human), UniProt Q05586+Q13224)
Experiment: Two electrode voltage-clamp recordings from Xenopus laevis oocytes, GluN2B potency and pH dependence
Type: cell-based
Settings: pH 6.9; read-out: IC50 (μM) pH 6.9
Protocol: Two Electrode Voltage-Clamp Recordings from Xenopus laevis Oocytes Stage V-VI Xenopus laevis unfertilized oocytes were purchased from Ecocyte (Austin, Texas) and injected with 5 ng of GluN1 and 10 ng of GluN2B cRNAs. The cDNAs for human GluN1 and GluN2B, encoding NCBI reference sequences NM_007327.3 and NM_000834.3, respectively, were linearized and cRNAs made as previously described (Traynelis et al., J Neurosci, 1998, 18(16):6163-75). […]
Reply numerically in µM, unit not repeated.

Molecule: CCc1ccc(N2CCN(C[C@@H](O)COc3ccc(NC(N)=O)cc3)CC2)cc1
U: µM
Reported Measurement: 0.052

Reported IC50 for NC(=O)Nc1ccc(OC[C@H](O)CN2CCN(c3ccc(Cl)c(Cl)c3)CC2)cc1 was 0.03

Reported IC50 for O=C1Cc2cc(OC[C@H](O)CN3CCN(c4ccc(Cl)cc4)CC3)ccc2N1 was 0.121

Reported IC50 for CC(C)c1ccc(N2CCN(C[C@H](O)COc3ccc(O)cc3)CC2)cc1 was 0.356

====

molecular target: human GluN1/GluN2B (Homo sapiens (Human), UniProt Q05586+Q13224); assay: Two electrode voltage-clamp recordings from Xenopus laevis oocytes, GluN2B potency and pH dependence; assay type: cell-based; conditions: pH 7.6; read-out: IC50 (μM) pH 7.6
Result Type: IC50 (µM)
Reply numerically in µM, unit not repeated.

Guide cases for IC50, answers given:
Molecule: O=C1CCc2cc(OC[C@@H](O)CN3CCN(c4ccc(C(F)(F)F)cc4)CC3)ccc2N1
IC50, µM: 0.717
//
Molecule: O=C1CCc2cc(OC[C@H](O)CN3CCN(c4ccc(C(F)(F)F)cc4)CC3)ccc2N1
IC50, µM: 0.142

# context switch: different molecule, same IC50
Reported IC50 for NC(=O)Nc1ccc(OC[C@H](O)CN2CCN(c3ccc(C(F)(F)F)cc3)CC2)cc1 was 0.128
